# target_under_test: HPK1 (MAP4K1) (Homo sapiens, UniProt Q92918)
# Sequence (Q92918 whole entry): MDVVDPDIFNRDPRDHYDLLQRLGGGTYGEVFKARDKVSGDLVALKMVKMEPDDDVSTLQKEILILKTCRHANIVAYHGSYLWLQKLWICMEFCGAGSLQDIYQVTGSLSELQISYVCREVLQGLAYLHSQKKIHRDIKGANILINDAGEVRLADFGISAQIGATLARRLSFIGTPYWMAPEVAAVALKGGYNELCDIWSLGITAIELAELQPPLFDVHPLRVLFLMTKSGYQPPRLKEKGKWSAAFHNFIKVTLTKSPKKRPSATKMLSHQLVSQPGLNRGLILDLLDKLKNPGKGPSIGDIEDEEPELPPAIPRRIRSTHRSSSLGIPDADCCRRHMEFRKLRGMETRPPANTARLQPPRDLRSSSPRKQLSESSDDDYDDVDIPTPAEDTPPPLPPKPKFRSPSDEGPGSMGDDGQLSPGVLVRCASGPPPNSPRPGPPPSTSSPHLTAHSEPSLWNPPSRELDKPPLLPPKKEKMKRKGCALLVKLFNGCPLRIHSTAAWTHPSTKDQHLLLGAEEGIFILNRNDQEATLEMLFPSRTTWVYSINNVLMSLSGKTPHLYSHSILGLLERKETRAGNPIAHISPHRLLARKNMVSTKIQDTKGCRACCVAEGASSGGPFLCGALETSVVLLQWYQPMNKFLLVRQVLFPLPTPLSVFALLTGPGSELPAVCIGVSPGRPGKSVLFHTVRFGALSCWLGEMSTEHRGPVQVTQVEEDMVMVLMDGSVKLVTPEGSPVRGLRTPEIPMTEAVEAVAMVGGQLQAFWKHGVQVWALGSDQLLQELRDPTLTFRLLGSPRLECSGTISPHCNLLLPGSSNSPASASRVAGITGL
# protocol_notes: FRET Assay for HPK1 (MAP4K1): one step binding assay, displacement of labeled tracer
# condition_details: 1 μM compound; FRET ratio 665/620, percent of control
measurement_type: inhibition at 1 µM (%)

Answered examples (5):
mol	target_under_test	measured
COc1cccc(F)c1-c1ccc2c(c1)/C(=C(\C)Nc1cnn(C)c1)C(=O)N2	HPK1 (MAP4K1) (Homo sapiens, UniProt Q92918)	82.6
C/C(Nc1ccc(N2CCOCC2)cc1)=C1/C(=O)Nc2cnc(-c3cnccc3C)cc21	HPK1 (MAP4K1) (Homo sapiens, UniProt Q92918)	78
C/C(Nc1cc(C)n(CC2CC2)n1)=C1/C(=O)Nc2cnc(-c3cnccc3C)cc21	HPK1 (MAP4K1) (Homo sapiens, UniProt Q92918)	73.5
C/C(Nc1cnn(C)c1)=C1/C(=O)Nc2cnc(-c3cnn(C)c3C)cc21	HPK1 (MAP4K1) (Homo sapiens, UniProt Q92918)	69.9
C/C(Nc1cc(C)n(CC(F)F)n1)=C1/C(=O)Nc2cnc(-c3c(C)cccc3F)cc21	HPK1 (MAP4K1) (Homo sapiens, UniProt Q92918)	65.7

(1) C/C(Nc1ccn(C)n1)=C1/C(=O)Nc2cnc(-c3cncc4c3OCC(=O)N4)cc21
(2) C/C(Nc1ccn(C)n1)=C1/C(=O)Nc2cccc(-c3cnccc3C)c21
Returns: the argument ( 1 or 2 ) having the larger inhibition at 1 µM. Field: selected label. Fill in the label of the entry you choose.
1

// data source = patent US20230009626A1
